Target: Glycogen phosphorylase, muscle form (Oryctolagus cuniculus)
Measured pKi by item
Notebook: values listed as pKi are -log10 of the concentration (mol/L).

[[record]]
chemical_structure = "N#Cc1ccc(/C(=N\\O)N[C@@H]2O[C@H](CO)[C@@H](O)[C@H](O)[C@H]2O)cc1"
observed_result = 2.74


// next item, pKi requested
Prompt: State the recorded pKi for this entry: "COc1ccc(C2=NO[C@]3(O[C@H](CO)[C@@H](O)[C@H](O)[C@H]3O)S2)cc1"
Response: 5.09

----------
Target: Glycogen phosphorylase, muscle form (Oryctolagus cuniculus)
Sequence (P00489 whole entry): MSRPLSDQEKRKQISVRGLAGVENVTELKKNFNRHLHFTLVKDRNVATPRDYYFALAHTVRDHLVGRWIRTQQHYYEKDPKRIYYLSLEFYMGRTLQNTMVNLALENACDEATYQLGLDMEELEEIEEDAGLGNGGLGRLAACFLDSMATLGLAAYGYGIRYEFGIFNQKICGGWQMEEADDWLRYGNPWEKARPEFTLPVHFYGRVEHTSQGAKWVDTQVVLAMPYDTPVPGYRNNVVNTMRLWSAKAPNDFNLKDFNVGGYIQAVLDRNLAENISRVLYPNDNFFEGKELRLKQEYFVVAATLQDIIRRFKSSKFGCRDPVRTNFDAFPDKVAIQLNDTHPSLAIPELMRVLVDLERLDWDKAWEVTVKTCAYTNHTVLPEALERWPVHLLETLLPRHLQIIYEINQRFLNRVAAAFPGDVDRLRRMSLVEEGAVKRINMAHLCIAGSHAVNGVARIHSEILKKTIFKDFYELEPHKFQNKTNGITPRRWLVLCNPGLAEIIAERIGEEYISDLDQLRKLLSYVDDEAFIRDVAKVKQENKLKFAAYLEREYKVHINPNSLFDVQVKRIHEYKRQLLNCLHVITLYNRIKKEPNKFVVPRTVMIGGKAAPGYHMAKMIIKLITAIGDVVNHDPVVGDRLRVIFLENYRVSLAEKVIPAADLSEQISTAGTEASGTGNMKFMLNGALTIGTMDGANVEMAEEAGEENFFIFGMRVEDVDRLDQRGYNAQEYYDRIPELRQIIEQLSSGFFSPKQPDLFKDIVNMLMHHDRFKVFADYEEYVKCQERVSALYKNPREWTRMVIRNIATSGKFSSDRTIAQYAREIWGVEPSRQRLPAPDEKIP
value type: pIC50
Notebook: values listed as pIC50 are -log10 of the concentration (mol/L).

Prompt: State the recorded pIC50 for this entry: "OC[C@H]1O[C@]2(ON=C(c3ccc(-c4ccccc4)cc3)S2)[C@H](O)[C@@H](O)[C@@H]1O"
Response: 3.60
